# Tested on: Listeria monocytogenes 10403S;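 further: End-point A600 read in BHI broth at 37 °C with 2% DMSO, inhibition computed as (1 − OD with compound plus ceftriaxone ÷ OD with ceftriaxone only) × 100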
# experimentNotes: growth inhibition relative to ceftriaxone-alone control; higher = stronger potentiation of ceftriaxone growth inhibition
# setupConditions: 10 µM; ceftriaxone 1 ug/ml; 12 h
reportedMetric: growth inhibition

[[record]]
entrysmiles = "Cc1ccccc1-n1c(Cn2cnc3c(N)ncnc32)nc2cccc(C)c2c1=O"
reportedmetric = "growth inhibition"
result = "-7.86%"

[[record]]
entrysmiles = "CC(C)(C)c1cc(C=C(C#N)C#N)cc(Br)c1O"
reportedmetric = "growth inhibition"
result = "103%"

[[record]]
entrysmiles = "CNC(=O)Oc1cc(C)c(/C=C/c2cncc(C(=O)NC)c2)c(C)c1"
reportedmetric = "growth inhibition"
result = "3.06%"

[[record]]
entrysmiles = "COC[C@H]1OC(=O)c2coc3c2[C@@]1(C)C1=C(C3=O)[C@@H]2CCC(=O)[C@@]2(C)C[C@H]1OC(C)=O"
reportedmetric = "growth inhibition"
result = "2.26%"

[[record]]
entrysmiles = "Cn1cc(C2=C(c3cn(C4CCN(Cc5ccccn5)CC4)c4ccccc34)C(=O)NC2=O)c2ccccc21"
reportedmetric = "growth inhibition"
result = "40.6%"

